# experiment: Inhibition of [3H]- DPDPE binding to delta opioid receptor of guinea pig brain
value-type: Ki (µM)

INSERT INTO results (substance, value_type, quantitative_result) VALUES
  ('H-YAHDVVG-NH2', 'Ki', 0.317);

----------
# experiment: Inhibition of [3H]- DPDPE binding to delta opioid receptor of guinea pig brain
Square brackets hold non-standard residues; d marks the D form. Peptide text beside a SMILES is read from it. Ala(4-thiazolyl) = N[C@@H](Cc1cscn1)C(=O)O; 2Pal = N[C@@H](Cc1ccccn1)C(=O)O; 3Pal = N[C@@H](Cc1cccnc1)C(=O)O; 2Thi = N[C@@H](Cc1cccs1)C(=O)O
# note: boundary value 70 nM maps to false; Ki below it maps to true

INSERT INTO results (molecule, group_label) VALUES
  ('CC(C)[C@H](NC(=O)[C@H](CC(=O)O)NC(=O)[C@H](Cc1cccc(F)c1)NC(=O)[C@H](C)NC(=O)[C@@H](N)Cc1ccc(O)cc1)C(=O)N[C@H](C(=O)NCC(N)=O)C(C)C', 'false'),
  ('CC(C)[C@H](NC(=O)[C@H](CC(=O)O)NC(=O)[C@H](Cc1ccc(F)cc1)NC(=O)[C@H](C)NC(=O)[C@@H](N)Cc1ccc(O)cc1)C(=O)N[C@H](C(=O)NCC(N)=O)C(C)C', 'false'),
  ('CC(C)[C@H](NC(=O)[C@H](CC(=O)O)NC(=O)[C@H](Cc1cccnc1)NC(=O)[C@H](C)NC(=O)[C@@H](N)Cc1ccc(O)cc1)C(=O)N[C@H](C(=O)NCC(N)=O)C(C)C (H-YA[3Pal]DVVG-NH2)', 'true'),
  ('Cc1c(C)c(C)c(C[C@H](NC(=O)[C@H](C)NC(=O)[C@@H](N)Cc2ccc(O)cc2)C(=O)N[C@@H](CC(=O)O)C(=O)N[C@H](C(=O)N[C@H](C(=O)NCC(N)=O)C(C)C)C(C)C)c(C)c1C', 'false'),
  ('Cc1ccc(C[C@H](NC(=O)[C@H](C)NC(=O)[C@@H](N)Cc2ccc(O)cc2)C(=O)N[C@@H](CC(=O)O)C(=O)N[C@H](C(=O)N[C@H](C(=O)NCC(N)=O)C(C)C)C(C)C)cc1', 'false'),
  ('CC(C)[C@H](NC(=O)[C@H](CC(=O)O)NC(=O)[C@H](Cc1c(F)c(F)c(F)c(F)c1F)NC(=O)[C@H](C)NC(=O)[C@@H](N)Cc1ccc(O)cc1)C(=O)N[C@H](C(=O)NCC(N)=O)C(C)C', 'false'),
  ('CC(C)[C@H](NC(=O)[C@H](CC(=O)O)NC(=O)[C@H](Cc1cccs1)NC(=O)[C@H](C)NC(=O)[C@@H](N)Cc1ccc(O)cc1)C(=O)N[C@H](C(=O)NCC(N)=O)C(C)C (H-YA[2Thi]DVVG-NH2)', 'true'),
  ('CC(C)[C@H](NC(=O)[C@H](CC(=O)O)NC(=O)[C@H](Cc1cscn1)NC(=O)[C@H](C)NC(=O)[C@@H](N)Cc1ccc(O)cc1)C(=O)N[C@H](C(=O)NCC(N)=O)C(C)C (H-YA[Ala(4-thiazolyl)]DVVG-NH2)', 'true'),
  ('CC(C)[C@H](NC(=O)[C@H](CC(=O)O)NC(=O)[C@H](Cc1ccccn1)NC(=O)[C@H](C)NC(=O)[C@@H](N)Cc1ccc(O)cc1)C(=O)N[C@H](C(=O)NCC(N)=O)C(C)C (H-YA[2Pal]DVVG-NH2)', 'true');
